- Method Description: soluble fraction after stress (log2 fold change); higher = more stays soluble; pooled small domains, quantitative proteomics
- Condition Info: stress: pH 4
Recorded soluble fraction (log2) by entry
Lab note: record the figure alone, no unit after it.

Use these answered entries as a reference point.
HMEAFAEAVASMLRKLQPEFAIDLVGPRELLVNGRRLDLENLYRMVNHEPVRGQEIVEHYLDQLFAG : -0.665
HMKQPNSYGSVHKLPGKRRKPWRVRKTSGWLLDEQSGTVKQQYITIGYYATKQEALIALADYNENP : -0.434
HMEELPIIVAQRFLNIFRQLHIFSDERREAFNKMLLELPPEVKSIFQSLPGGTPLQEYMEDLEQKSK : -0.262
HMYATQLLQLEEMGFFDRAENIRALRATNGNVNAAVERL : -0.114
HMRKPISQEIVDEVLKLAKNNPDWGYDRIAGVMKYLKYDVSATTVRHILDDNGIVPDPERRLR : -0.0119

QUERY: Param item = HMDSKPNDLLFVYVSQLIRSLTLNSSKKDSELADELEVSISQIRIWLKKLINEQLIVKESKPVKYRWKG ; retrieve measured soluble fraction (log2).
RESULT: -0.327

QUERY: Param item = HMDSIGTQIRKLREEAEMPLRKLSALLDIDQSTLSKIERDERRANTQMIEQIAKIFKVNKEQLLVA ; retrieve measured soluble fraction (log2).
RESULT: -1.98

QUERY: Param item = HMLSNKIEQLRKEKGYTFAKLSELSGISTGRLSDLATGKRNNPTMDTLIKLADALDVTLDELVGR ; retrieve measured soluble fraction (log2).
RESULT: -0.328

QUERY: Param item = HMQMEYEKAIAYILDKIKSGELSIGSKLPAERVIADTLHIGRNSTREALSILHGMGMVDRVHGSGNYISEH ; retrieve measured soluble fraction (log2).
RESULT: -0.111

QUERY: Param item = HMPAELGVVVRNANLRSGPGTKYAIVGSAPAGTTVRIAGTNKAGDWYHLSSGRWIAAFLVDRN ; retrieve measured soluble fraction (log2).
RESULT: 0.34

QUERY: Param item = HMKNTYTVVSGDTLWGIASRKLGGGSNWTKIYDANAATIESVANRRRGGRGSDHGHWIYPGTVLTI ; retrieve measured soluble fraction (log2).
RESULT: 0.216

QUERY: Param item = HMTDFNTFSDAIIAAVGSRASGLKVVDNAVSVMVDVSGLNEDQRVEIEADVRAAAEHAGAQSVRIMLT ; retrieve measured soluble fraction (log2).
RESULT: -0.5

###

- Method Description: soluble fraction after stress (log2 fold change); higher = more stays soluble; pooled small domains, quantitative proteomics
- Condition Info: stress: pH 4
Output: class label from soluble fraction (log2). Mapping: lower range (below -1), middle range (-1 to below -0.02), upper range (-0.02 or more)

HMPNQLLELVEMEIRDLLNEYEFPGDDTPIIQGSALKALEDPMGPWGDKIMDLMDAVDSYIPDPE : lower range
HMDDILAYEIEDKEDLENLSLGKSIGINLNKLIKPTLNSFDNSLLFLSKKGNIISYGKLNGDLFKPKKVL : middle range
HMNIFAHQIGKLRTERHLSQTDVAKRLYVSRQAVSKWENGDAEPSLDNLIALAKLFNVSLDNLITGQ : upper range

Continue with the sequence presented below.
QUERY: Band assignment needed for HMADLKVGFVHRAGSVLERELDDVLEALEMYRSALAIDPSHKPSLDALTRISQLADYREQAAEILEPLPR please.
RESULT: lower range
